Could you please report measured CC50 at 72 h for the items listed next?
- TEST_SUMMARY: Cytotoxicity against human RPTEC assessed as reduction in cell viability incubated for 72 hrs under normoxic condition by SRB assay
- Type: toxicity, cell-based
- MEASUREMENT_PARAMETERS: RPTEC cells
Answers are plain numbers, in µM.

Field: example entries. Status: answers known.
Cn1cnc(-c2nc(-c3cccnc3)no2)n1
90.9
c1cncc(-c2noc(C3CCCC3)n2)c1
84.4
Cc1cccc(Nc2cc(Cl)nc(CSC(=O)O)n2)c1C
54.1
c1cncc(-c2noc(-c3ncon3)n2)c1
67.5
c1cncc(-c2noc(-c3nn[nH]n3)n2)c1
95.2

Please give CC50 at 72 h, item by item, for the list that follows.
1. CCCCCc1nc(-c2cccnc2)no1
2. c1cncc(-c2noc(-c3nnsn3)n2)c1
3. Cn1nnc(-c2nc(-c3cccnc3)no2)n1
4. c1cncc(-c2noc(-c3cc[nH]c3)n2)c1

A:
1. 81.7
2. 38.7
3. 89
4. 92

---

- TEST_SUMMARY: Cytotoxicity against human WPMY-1 cells assessed as reduction in cell viability incubated for 72 hrs under normoxic condition by SRB assay
- Assay type: toxicity, cell-based
Quick rule for you: CC50 at 72 h under 80 µM gets fulfilled, anything else gets not fulfilled.

Study these solved cases before continuing.
c1cncc(-c2noc(-c3nnon3)n2)c1
fulfilled
c1cncc(-c2noc(-c3nn[nH]n3)n2)c1
not fulfilled
c1cncc(-c2noc(C3CCCC3)n2)c1
not fulfilled

Q: Hi there! Is CC50 at 72 h for C1=CC(c2nc(-c3cccnc3)no2)CC1 (configuration not stated) below 80 µM, do you know?
A: not fulfilled

Q: Hi there! Is CC50 at 72 h for c1cncc(-c2noc(-c3ncsn3)n2)c1 below 80 µM, do you know?
A: fulfilled

---

- TESTED_TARGET: Peroxisome proliferator-activated receptor alpha (Homo sapiens, UniProt Q07869)
- Sequence (Q07869 whole entry, the tested form may be a part): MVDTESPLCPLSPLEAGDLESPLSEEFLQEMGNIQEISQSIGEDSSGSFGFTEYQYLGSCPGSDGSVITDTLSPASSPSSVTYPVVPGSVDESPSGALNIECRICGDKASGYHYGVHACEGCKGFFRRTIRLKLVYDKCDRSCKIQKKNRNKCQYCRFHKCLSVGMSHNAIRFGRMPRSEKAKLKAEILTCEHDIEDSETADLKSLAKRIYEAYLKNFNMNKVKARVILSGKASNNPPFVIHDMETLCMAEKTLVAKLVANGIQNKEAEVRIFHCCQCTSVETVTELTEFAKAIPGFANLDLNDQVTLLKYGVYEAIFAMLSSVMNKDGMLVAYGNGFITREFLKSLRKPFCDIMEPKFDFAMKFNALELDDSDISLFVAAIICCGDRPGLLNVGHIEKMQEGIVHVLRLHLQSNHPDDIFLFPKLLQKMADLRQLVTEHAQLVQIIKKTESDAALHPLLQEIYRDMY
- TEST_SUMMARY: Agonist activity at GAL4-tagged PPARalpha in human WPMY-1 cells assessed as transcriptional activation incubated for 72 hrs under normoxic condition by luciferase assay
- Type: cell-based
ASSAY_READOUT: EC50
Please report the result as a number followed by the unit.

Q: Read the entry C1=CC(c2nc(-c3cccnc3)no2)CC1 (stereo unspecified) and write its reported EC50.
A: 730 nM

---

Could you please report measured CC50 at 72 h for the items listed next?
- TEST_SUMMARY: Cytotoxicity against human WPMY-1 cells assessed as reduction in cell viability incubated for 72 hrs under normoxic condition by SRB assay
- Format: toxicity, cell-based
Answers are plain numbers, in µM.

Cn1ccc(-c2nc(-c3cccnc3)no2)c1
91.8
Cn1nnc(-c2nc(-c3cccnc3)no2)n1
93.4
C1=C(c2nc(-c3cccnc3)no2)CCC1
81.3
Cc1cccc(Nc2cc(Cl)nc(CSC(=O)O)n2)c1C
62.9

Please give CC50 at 72 h, item by item, for the list that follows.
1. c1cncc(-c2noc(-c3ccsc3)n2)c1
2. c1cncc(-c2noc(-c3cc[nH]c3)n2)c1

A:
71.1
96.9

Please give CC50 at 72 h, item by item, for the list that follows.
1. c1cncc(-c2noc(-c3ccoc3)n2)c1
2. CCCCCc1nc(-c2cccnc2)no1
3. c1cncc(-c2noc(-c3nc[nH]n3)n2)c1
4. c1cncc(-c2noc(-c3nnsn3)n2)c1

A:
1. 62.5
2. 92.7
3. 98.1
4. 46.7

Q: Read the entry Cn1cnc(-c2nc(-c3cccnc3)no2)n1 and write its reported CC50 at 72 h.
A: 94.9
